species on record: Homo sapiens; assay: Immunosuppressant activity using human mixed leukocyte response (HMLR).; assay type: functional
ENDPOINT NAME: IC50 (µM)

Observe how each entry below is paired with its result.
compound=Cc1c(C(=O)Nc2ccc(C(F)(F)F)cc2)cnn1Cc1ccc(F)cc1 endpoint_name=IC50 unit_info=µM numeric_value=3.6
compound=Cc1ccc(-n2ncc(C(=O)Nc3ccc(C(F)(F)F)cc3)c2C)cc1 endpoint_name=IC50 unit_info=µM numeric_value=0.41

(1) Cc1c(-c2ccc(-c3ccccc3F)cc2)nc2ccc(F)cc2c1C(=O)O [BREQUINAR]
(2) Cc1cccc(NC(=O)c2cnn(-c3ccc(F)cc3)c2C)c1
Prompt: Would you mind telling me which has the lower recorded IC50 between 1 and 2 ? Answer by stating the label of the chosen item.
Completion: 1
(1: 3.9 µM, 2: 5.7 µM)

(1) Cc1c(C(=O)Nc2ccc(C(F)(F)F)cc2)cnn1-c1ccccc1C(F)(F)F
(2) CCCCC(CC)NC(=O)c1cnn(-c2ccc(F)cc2)c1C (stereo not given)
Prompt: Just curious, which one has the larger IC50 reading, 1 or 2 ? Answer by stating the label of the chosen item.
Completion: 1

Origin of the recorded values: ChEMBL document CHEMBL1130610
